All values here come from patent US20250152746A1.

Test system: PCSK9 gene
Test: PCSK9 gRNA/SpCas9 editing in primary human hepatocytes (Tables 2, 4)
Assay type: cell-based
Settings: 500 ng/RNA/mL; SpCas9 mRNA MS002 1:1 by weight
In the oligonucleotide strings, read from the 5' end, every base follows the letter of its sugar. An asterisk marks phosphorothioate; unmarked linkages are phosphodiester. Other units and linkages are bracketed, terminal groups are in braces. A string of capitals states the bases alone. m = 2'-O-methyl; r = 2'-OH (RNA)
Form field: Human Primary Hepatocyte Editing % 500 (one value per entry).
Unit % implied. Number only.

Query: Human Primary Hepatocyte Editing % 500; subject: GA157: PCSK9 gRNA; protospacer GCCGTCCTCCTCGGAACGCA (SEQ ID NO: 151) (nucleic acid) guide: mG*mC*mC*rGrUrCrCrUrCrCrUrCrGrGrArArCrGrCrArGrUrUrUrUrArGrArGrCrUrArGrArArArUrArGrCrArArGrUrUrArArArArUrArArGrGrCrUrArGrUrCrCrGrUrUrArUrCrArArCrUrUrGrArArArArArGrUrGrGrCrArCrCrGrArGrUrCrGrGrUrGrCrU*mU*mU*mU 2.82

Query (molecule): GA205: PCSK9 gRNA; protospacer CCCTGCCCTCGATTTCCCGG (SEQ ID NO: 199) (nucleic acid, sugars from the 5' end m3 r94 m3, linkages s3 o93 s3 (s phosphorothioate, o phosphodiester), T or U not given here) guide: CCCUGCCCUCGAUUUCCCGGGUUUUAGAGCUAGAAAUAGCAAGUUAAAAUAAGGCUAGUCCGUUAUCAACUUGAAAAAGUGGCACCGAGUCGGUGCUUUU ; field requested: Human Primary Hepatocyte Editing % 500 12.42

Shift focus to the following entry.
Give the measured Human Primary Hepatocyte Editing % 500 of GA234: PCSK9 gRNA; protospacer CGCCTGCCAGCGCCTGGCGA (SEQ ID NO: 252) (nucleic acid) guide: mC*mG*mC*rCrUrGrCrCrArGrCrGrCrCrUrGrGrCrGrArGrUrUrUrUrArGrArGrCrUrArGrArArArUrArGrCrArArGrUrUrArArArArUrArArGrGrCrUrArGrUrCrCrGrUrUrArUrCrArArCrUrUrGrArArArArArGrUrGrGrCrArCrCrGrArGrUrCrGrGrUrGrCrU*mU*mU*mU . 2.29
